# ASSAY_NOTES: STAT1 signaling inhibitors, confirmation, cell-based, HTS, luciferase reporter (AID 1263)
# RUN_CONDITIONS: NIH 3T3 STAT1-luciferase reporter, IFN-gamma, luminescence; at 5.5 µM
The list shows a part of the results. Calls of active or inactive are those of the source.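 The calls were made as follows: active = triplicate mean inhibition exceeding the hit cutoff computed for the primary STAT1 screen (cut at about 35% in these data); inactive = the rest.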
One label from this list, please: y for active, n for inactive

Worked cases, answers included:
> print(dat)
                                   molecule  label
1  C[C@@H]1C[C@@H]2O[C@H]2/C=C\C=C\C(=O)Cc2c(Cl)c(O)cc(O)c2C(=O)O1      y
2  COC(=O)C1=CN(Cc2ccc(OC)c(OC)c2)C=C(C(=O)OC)C1c1cccs1      y
3  Cc1ccc(C2=Nc3c(ccc4ccccc34)C(c3ccncc3)=NN2)cc1      y
4  O=C(CCl)N(Cc1cccc([N+](=O)[O-])c1)c1cccc(Cl)c1      n
5  CCOC(=O)N1CCN(C(=O)C2CCN(c3ncnc4c3sc3cccc(F)c34)CC2)CC1      y

In this assay, the call recorded for COc1ccc(C2CC(c3cccs3)=NN2c2nc(C)c(C(C)=O)s2)cc1OC (stereo unspecified) was what? n

Value source: PubChem BioAssay AID1263
